// provenance: the supplement of paper PMC6555819

Examples of sequences with documented PBM binding z-score follow.
Test system: PPARg:RXRa 90nM:30nM, anti-RXR (NR concentration 90 nM, RXRa partner concentration 30 nM)
EXPERIMENT SUMMARY: PBM binding z-score (relative to random genomic background probes); higher = stronger binding; sequences stand for … in GC…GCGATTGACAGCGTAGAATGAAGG
Write the value as a bare number.

Below, each entry is followed by its recorded PBM binding z-score result.
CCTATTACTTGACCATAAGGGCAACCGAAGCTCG = 0.247
ATCTCTAGGTATGACTCAGTTCAGTGAAGAACGC = 0.0715
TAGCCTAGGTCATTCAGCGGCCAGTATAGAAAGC = 1.12
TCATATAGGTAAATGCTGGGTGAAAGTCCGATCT = 3.26
CAAACTAGGTAACAGAGGTCAAAGTCCGTGCGTA = 5.74

Now consider a different sequence.
In: Item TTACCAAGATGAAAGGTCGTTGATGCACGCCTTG has what recorded PBM binding z-score?
Out: 5.86
